test system: A549 cells; experiment: MTT cytotoxicity assay; assay type: cell-based, human; conditions: Homo sapiens, A549, 48 h, read-out: IC50 (in vitro cytotoxicity)
Structures can show the parent of a compound that is named as a salt.

[
  {
    "Molecule": "Nc1ccn([C@@H]2O[C@H](CO)[C@@H](O)C2(F)F)c(=O)n1 [gemcitabine, Gemcitabine hydrochloride]",
    "Measurement target": "A549 cells",
    "IC50 / µM": 4.83
  }
]
